Target: human αvβ3 receptor (Homo sapiens, UniProt P05106+P06756)
Sequence (P06756 31-889 limits assumed): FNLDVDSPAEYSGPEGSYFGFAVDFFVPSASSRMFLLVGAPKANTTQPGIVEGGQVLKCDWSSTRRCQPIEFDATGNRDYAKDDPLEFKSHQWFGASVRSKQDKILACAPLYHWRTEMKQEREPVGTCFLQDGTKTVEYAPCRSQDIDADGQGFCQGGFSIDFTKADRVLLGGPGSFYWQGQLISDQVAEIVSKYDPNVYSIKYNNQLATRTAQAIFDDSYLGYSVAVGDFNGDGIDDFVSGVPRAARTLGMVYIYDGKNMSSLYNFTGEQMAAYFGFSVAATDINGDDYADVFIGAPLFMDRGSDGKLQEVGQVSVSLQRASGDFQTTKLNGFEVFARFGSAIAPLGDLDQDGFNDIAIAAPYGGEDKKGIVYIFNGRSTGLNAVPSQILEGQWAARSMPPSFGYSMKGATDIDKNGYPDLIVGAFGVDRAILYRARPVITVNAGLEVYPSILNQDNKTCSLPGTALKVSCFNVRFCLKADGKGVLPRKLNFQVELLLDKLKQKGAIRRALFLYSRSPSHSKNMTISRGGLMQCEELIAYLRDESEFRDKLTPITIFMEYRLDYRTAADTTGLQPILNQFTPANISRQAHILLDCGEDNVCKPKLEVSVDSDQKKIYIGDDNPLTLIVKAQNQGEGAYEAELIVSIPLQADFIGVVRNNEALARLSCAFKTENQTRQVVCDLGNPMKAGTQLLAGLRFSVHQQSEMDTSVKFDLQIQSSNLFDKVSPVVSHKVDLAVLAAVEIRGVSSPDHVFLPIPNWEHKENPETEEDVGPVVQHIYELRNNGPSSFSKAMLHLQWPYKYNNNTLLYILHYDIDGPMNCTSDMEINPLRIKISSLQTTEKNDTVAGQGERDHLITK
Sequence (P06756 891-1048 limits assumed): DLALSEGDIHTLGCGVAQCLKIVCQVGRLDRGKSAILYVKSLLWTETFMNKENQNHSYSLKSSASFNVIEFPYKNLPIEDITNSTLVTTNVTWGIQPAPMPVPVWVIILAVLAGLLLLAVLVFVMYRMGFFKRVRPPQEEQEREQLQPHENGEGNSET
Sequence (P05106 27-788): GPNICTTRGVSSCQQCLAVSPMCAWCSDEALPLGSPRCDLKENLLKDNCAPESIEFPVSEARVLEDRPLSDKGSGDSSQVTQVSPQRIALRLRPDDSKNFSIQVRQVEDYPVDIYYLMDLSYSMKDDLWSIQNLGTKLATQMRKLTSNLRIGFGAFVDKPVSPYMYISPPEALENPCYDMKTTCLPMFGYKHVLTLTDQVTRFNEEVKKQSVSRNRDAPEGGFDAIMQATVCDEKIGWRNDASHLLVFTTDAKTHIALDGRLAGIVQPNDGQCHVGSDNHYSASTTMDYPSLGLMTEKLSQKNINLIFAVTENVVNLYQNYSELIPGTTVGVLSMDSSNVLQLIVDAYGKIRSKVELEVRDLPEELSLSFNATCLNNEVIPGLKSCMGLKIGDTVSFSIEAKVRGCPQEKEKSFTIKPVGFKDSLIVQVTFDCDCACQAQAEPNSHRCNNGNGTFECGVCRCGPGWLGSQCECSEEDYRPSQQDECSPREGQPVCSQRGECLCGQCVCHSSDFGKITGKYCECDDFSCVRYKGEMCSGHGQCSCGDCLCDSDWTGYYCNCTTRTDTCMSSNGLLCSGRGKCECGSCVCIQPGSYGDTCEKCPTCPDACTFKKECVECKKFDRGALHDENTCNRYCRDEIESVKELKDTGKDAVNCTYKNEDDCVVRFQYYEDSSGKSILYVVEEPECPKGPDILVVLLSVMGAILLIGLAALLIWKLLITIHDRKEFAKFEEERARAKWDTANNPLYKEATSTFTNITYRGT
Test: Kistrin/Vitronectin Receptor (αvβ3) ELISA test
Assay type: binding
Details: Kistrin-coated plates, human αvβ3 receptor, 3 hours at ambient temperature, OD 450 nm; read-out: K/VnR IC50
pIC50: −log10 of the molar value.
measured-attribute: pIC50

Below are worked cases with known answers.
CC(C)(C)c1ccc(S(=O)(=O)NC(Cc2cc3cc(CCC(=O)NC4=NCCCN4)ccc3o2)C(=O)O)cc1 (stereo not shown) = 7.82
O=C(CCc1ccc2oc(CC(NC(=O)OCc3ccccc3)C(=O)O)cc2c1)NC1=NCCCN1 (stereo not shown) = 8.05
O=C(CCc1ccc2oc(CC(NS(=O)(=O)NC(=O)OCc3ccccc3)C(=O)O)cc2c1)NC1=NCCCN1 (stereo not shown) = 8.00

P = O=C(CCc1ccc2oc(CC(NS(=O)(=O)NCc3ccccc3)C(=O)O)cc2c1)NC1=NCCCN1 (stereo not shown)
Q = O=C(CCc1ccc2oc(CC(NC(=O)OCC34CC5CC(CC(C5)C3)C4)C(=O)O)cc2c1)NC1=NCCCN1 (stereo not shown)
IN: Please choose the item with the lower pIC50 value from this pair: P and Q State the label of the item chosen.
OUT: Q

a = O=C(CCc1ccc2oc(CC(NS(=O)(=O)c3cccc4ccccc34)C(=O)O)cc2c1)NC1=NCCCN1 (stereo not shown)
b = CC(C)c1ccc(S(=O)(=O)NC(Cc2cc3cc(CCC(=O)NC4=NCCCN4)ccc3o2)C(=O)O)cc1 (stereo not shown)
IN: Please choose the item with the lower pIC50 value from this pair: a and b State the label of the item chosen.
OUT: b
(b: 8.04, a: 8.26)
